Each entry below lists one item and its recorded Potency value.
test.summary: Quantitative High-Throughput drug screen in 47 multiple myeloma cell lines against the NCATS MIPE library collection: SKMM1_PLB cell viability assay (AID 1919863); note: potency is the fitted concentration of half-maximal effect; nearly all actives have a fitted effect of over 35% in size
particulars: SKMM1 myeloma viability, CellTiter-Glo ATP, 48 h
Records with an inconclusive call do not appear. Activity calls are given as the source filed them. Calls come from the whole dose curve; as a rule, active = well fitted cell-killing curve with a large enough effect; inconclusive = small, poorly fitted or top-dose-only effect, or effect the other way; inactive = no such curve, though single readings can be large or run the other way.

| molecule | Potency |
| --- | --- |
| c1cc(-c2cnn3cc(-c4ccc(OCCN5CCCCC5)cc4)cnc23)ccn1 | 20.9 µM (active) |
| CN(C)CC=CC(=O)Nc1cc2c(Nc3ccc(F)c(Cl)c3)ncnc2cc1O[C@H]1CCOC1 | 6.62 µM (active) |
| CC[C@@H]1C(=O)N(C)c2cnc(Nc3ccc(C(=O)NC4CCC(N5CCN(CC6CC6)CC5)CC4)cc3OC)nc2N1C(C)C (some centres not stated) | 2.35 µM (active) |
| Cc1ccc(-c2ncn(-c3ccc(Nc4nccc(-c5cccc(N6CCOCC6)c5)n4)cc3)n2)cn1 | 0.235 µM (active) |
| COc1cc(=C2C=c3ccccc3=N2)[nH]c1=Cc1[nH]c(C)cc1C | 4.18 µM (active) |
| CC(C)(O)c1cc2nc(-c3cnc(N)nc3)nc(N3CCOCC3)c2s1 | 0.235 µM (active) |
| COc1ccc(C(=O)CC2(O)C(=O)Nc3c(Cl)ccc(Cl)c32)cc1 (configuration not stated) | 1.18 µM (active) |
| Cc1cc(Nc2ncnc3ccc(-c4ccc(CNCCS(C)(=O)=O)o4)cc23)ccc1Oc1ccn2ncnc2c1 | 26.4 µM (active) |
| Cn1c(=O)n(-c2ccc(C(C)(C)C#N)cc2)c2c3cc(-c4cnc5ccccc5c4)ccc3ncc21 | 0.0332 µM (active) |
| COc1cc2c(Oc3ccc4[nH]c(C)cc4c3F)ncnc2cc1OCCCN1CCCC1 | 20.9 µM (active) |
| O=C(Nc1ncc(-c2cc(C(F)F)nn2-c2c(Cl)cccc2Cl)s1)C1CC1 | 0.332 µM (active) |
| COC(=O)[C@]12CCC(C)(C)C[C@@H]1[C@@H]1C(=O)C=C3[C@@]4(C)C=C(C#N)C(=O)C(C)(C)[C@@H]4CC[C@@]3(C)[C@]1(C)CC2 | 0.469 µM (active) |
| O=C(Nc1cc(C(F)(F)F)cc(C(F)(F)F)c1)c1cc(Cl)ccc1O | 0.833 µM (active) |
| CNC(=O)c1c(F)cccc1Nc1nc(Nc2cc3c(cc2OC)CCN3C(=O)CN(C)C)nc2[nH]ccc12 | 10.5 µM (active) |
| Cn1c2ccccc2c2c3c(c4c5ccccc5n(CCC#N)c4c21)CNC3=O | 8.33 µM (active) |
| CCc1c2c(nc3ccc(O)cc13)-c1cc3c(c(=O)n1C2)COC(=O)[C@]3(O)CC | 0.469 µM (active) |
| CC(C)c1cnn2c(NCc3ccccc3)cc(N[C@@H](CO)[C@H](O)CO)nc12 | 0.372 µM (active) |
| COc1cc(C(=O)N2CCC(N3CCN(C)CC3)CC2)ccc1Nc1ncc2c(n1)N(C)c1ccccc1C(=O)N2C | 5.9 µM (active) |
| COc1cccc(-c2ccc(NC(=O)C3=C(C(=O)O)CCC3)c(F)c2)c1 | 5.9 µM (active) |
| C#Cc1cccc(Nc2ncnc3cc(OC)c(OCCCCCCC(=O)NO)cc23)c1 | 0.418 µM (active) |
| C[C@@]12O[C@@H](C[C@]1(O)CO)n1c3ccccc3c3c4c(c5c6ccccc6n2c5c31)CNC4=O | 5.26 µM (active) |
| COc1cc(C(=O)NS(=O)(=O)c2ccccc2C)ccc1Cc1cn(C)c2ccc(NC(=O)OC3CCCC3)cc12 | 18.7 µM (active) |
| CNC(=O)c1cc(Oc2ccc(NC(=O)Nc3cc(C(C)(C)C)nn3-c3ccc4ncccc4c3)c(F)c2)ccn1 | 14.8 µM (active) |
| CN(c1ncccc1CNc1nc(Nc2ccc3c(c2)CC(=O)N3)ncc1C(F)(F)F)S(C)(=O)=O | 14.8 µM (active) |
| CNc1nccc(-c2cccnc2Oc2cc(C(=O)Nc3cccc(C(F)(F)F)c3)ccc2C)n1 | 18.7 µM (active) |
| Nc1nc(Nc2ccc(S(N)(=O)=O)cc2)nn1C(=O)c1c(F)cccc1F | 10.5 µM (active) |
| CC1(C)OC2=C(C(=O)c3ccccc3C2=O)[C@H](NCc2ccccc2)[C@H]1O | 7.43 µM (active) |
| C[C@@H](Oc1cc(-c2cnn(C3CCNCC3)c2)cnc1N)c1c(Cl)ccc(F)c1Cl | 7.43 µM (active) |
| COc1cc2nccc(Oc3ccc(NC(=O)C4(C(=O)Nc5ccc(F)cc5)CC4)cc3)c2cc1OC | 16.6 µM (active) |
| COC(=O)c1ccc2c(C(=Nc3ccc(N(C)C(=O)CN4CCN(C)CC4)cc3)c3ccccc3)c(O)[nH]c2c1 | 9.35 µM (active) |
| CNC(=O)CN1CCC(Oc2cc3c(Nc4cccc(Cl)c4F)ncnc3cc2OC)CC1 | 0.0264 µM (active) |
| CC(=O)Nc1sc2c(c1-c1nc3ccccc3s1)CNC2 | 16.6 µM (active) |
| O=C(C=Cc1cccnc1)NCCCCC1CCN(C(=O)c2ccccc2)CC1 | 0.059 µM (active) |
| COc1cccc2nc(-c3cccs3)nc(NN3C(=O)C=C(C)C3=O)c12 | 1.05 µM (active) |
| CCCCN1CCC(CNC(=O)c2c3n(c4ccccc24)CCCO3)CC1 | 16.6 µM (active) |
| NC(=O)c1c(OCc2c(F)cc(Br)cc2F)nsc1NC(=O)NCCCCN1CCCC1 | 29.6 µM (active) |
| Cc1ccc(C(N)=O)cc1Nc1nccc(-c2cn(C(C)C)c3cnccc23)n1 | 16.6 µM (active) |
